measurementProtocol: Primary qHTS for delayed death inhibitors of the malarial parasite plastid, 96 hour incubation
experimentalConditions: P. falciparum luciferase reporter growth; series mostly up to 28.7 µM
Screen size: about 320,000 compounds; about 22,000 (6.9%) were called active. About 27% were inconclusive and are not listed. Calls follow the shape of the dose curve; as a rule, active = well fitted inhibition curve with a large enough effect; inconclusive = small, poorly fitted or top-dose-only effect, or another doubt; inactive = no such curve, though single readings can be large or run the other way. The list comes from a sample in which actives are over-represented; it also holds close analogues and randomly drawn compounds.
Returns: one label drawn from true = active, false = inactive

> print(dat)
                                   compound  label
1  CCOC(=O)NN1C(=O)c2ccccc2NC1c1ccccc1O (centres undefined)   true

GET /call?item= COc1ccc2oc(=O)c(C(=O)N3CCCc4ccccc43)cc2c1 returns the recorded outcome of this test.
false

Returns: the outcome recorded for COc1ccc(/C=C/c2nnc(NC(=O)C(C)C)s2)cc1 in this assay.
false

Which result was noted for this compound in the test: CC(Oc1ccc(F)cc1)C(=O)N1CCN(c2ncccn2)CC1 (centres undefined)
false

Entry O=C(Nc1ccc(Cl)cc1)Nc1nnc(/C=C/c2ccccc2)s1 : call = ?
true

GET /call?item= CC(Oc1ccccc1)C(=O)Nc1oc(-c2ccco2)c(-c2ccco2)c1C#N (centres undefined) returns the recorded outcome of this test.
false

Field: outcome | Entry: Cc1occc1C(=O)N1CCCc2ccccc21
true

Assay result, entry CCc1cc(=O)oc2c(C)c(OCC(=O)N3CC[C@@]4(O)CCCC[C@H]4C3)ccc12 — outcome?
false

Test call, this compound: O=C1c2ccccc2NC(c2ccccc2O)N1NS(=O)(=O)c1ccccc1 (centres undefined)
false

Entry CCC(C(=O)NC1CCCCC1)N(C(=O)c1snc(C(N)=O)c1N)c1ccc(OC)cc1OC (centres undefined) : call = ?
false

Answer briefly: the call reported for CSc1ncc(Cl)c(C(=O)Nc2cc(C)ccc2C)n1 in this assay.
false

Please share the test call associated with CCC(=O)N1CCCc2ccccc21 .
false

Field: outcome | Entry: CCn1nnnc1SCC(=O)c1ccc(C)cc1C
true

How was CCCc1cc(=O)n2[nH]c(C)c(-c3ccc(Cl)cc3)c2n1 classified in this test?
false

Test call, this compound: O=C(NC1CCCCC1)c1cc(C2CC2)on1
false

For O=C(Nc1cc(C(F)(F)F)ccc1Cl)c1cc(C2CC2)on1 , which call appears in the assay record?
false

---

measurementProtocol: Primary qHTS for delayed death inhibitors of the malarial parasite plastid, 96 hour incubation
experimentalConditions: P. falciparum luciferase reporter growth; series mostly up to 28.7 µM
In all, about 320,000 compounds went through this assay and about 22,000 (6.9%) were called active. About 27% were inconclusive and are not listed. Calls come from the whole dose curve; as a rule, active = well fitted inhibition curve with a large enough effect; inconclusive = small, poorly fitted or top-dose-only effect, or another doubt; inactive = no such curve, though single readings can be large or run the other way. For the sample, actives were picked, then their nearest neighbours and some compounds at random.
Would you mind answering with one of these outcomes? active, inactive

// below: answered compounds
> print(dat)
                                   compound     label
1  Cc1cccc(N(Cc2ccccc2)C(=O)c2cc(S(=O)(=O)N3CCOCC3)ccc2F)c1    active
2           O=[N+]([O-])c1ccc(N2CCSCC2)cc1O  inactive
3  Cc1nc(N2CCOCC2)c2c(C)c(C(=O)Nc3ccc(C(F)(F)F)cc3)sc2n1  inactive
4  O=c1c2ccccc2cnn1Cc1n[nH]c(=S)n1-c1ccccc1F  inactive
5      COc1cc(C=O)c(Br)cc1OCC(=O)NCc1ccccc1    active

Check the results log: what was the call for Cc1nc(COc2cc3oc(=O)cc(C)c3cc2Cl)cs1 ?
inactive

Outcome logged for COc1ccccc1OCCC(=O)OCC(=O)NCc1ccccc1 in this assay:
inactive
